B1: GLTSCR2 (parent)
chain: YNPSFEDHQTLLSAAHEVELQRQK

- Variants of: B1
- method: protein stability index of a GFP-peptide fusion (GPS, HEK-293T) (PSI 1-6); higher = more stable;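 further: lentivirally expressed fusions sorted by FACS into six bins by GFP to DsRed ratio, PSI derived from sequencing read proportions per bin multiplied by bin number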
- experimental-conditions: c terminus: a fixed tail appended
Label 1.0 when protein stability index is at or above 4; otherwise label 0.0.

| mutation-string | class-assignment |
| --- | --- |
| S4M | 1.0 |
| R22V | 0.0 |
| Q9W | 0.0 |
| R22Q | 1.0 |
| F5V | 0.0 |
| L12E | 1.0 |
| L12A | 1.0 |
| Q23R | 0.0 |
| N2M | 1.0 |
| P3E | 1.0 |
| Q23N | 0.0 |
| N2K | 1.0 |
| H8M | 0.0 |
| E17P | 0.0 |
| H16Q | 0.0 |
| H8D | 1.0 |
| S13L | 0.0 |
| Q9D | 1.0 |
| T10D | 1.0 |
| H16G | 1.0 |
| L12S | 1.0 |
| Y1L | 1.0 |
